Known RIA for C1q of a selection of binders
molecular target: T1, human C1q (human, UniProt P02745 23-245; P02746 28-253; P02747 29-245); assay: RIA, 35S-labelled Fc on coated C1q
T1 construct: Human C1q (Sigma) in the ELISA; hC1q coated at 100 nM in the RIA; also called hC1q
T1 sequence (P02745 23-245 limits assumed, chain 1 of 3): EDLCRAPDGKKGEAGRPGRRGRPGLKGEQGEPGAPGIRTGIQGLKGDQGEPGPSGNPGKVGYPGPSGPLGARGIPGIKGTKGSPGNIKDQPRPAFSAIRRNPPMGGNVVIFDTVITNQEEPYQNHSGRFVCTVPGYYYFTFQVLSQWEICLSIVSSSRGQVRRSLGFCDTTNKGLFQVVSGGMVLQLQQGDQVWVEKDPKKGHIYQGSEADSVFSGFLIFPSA
T1 sequence (P02746 28-253 limits assumed, chain 2 of 3): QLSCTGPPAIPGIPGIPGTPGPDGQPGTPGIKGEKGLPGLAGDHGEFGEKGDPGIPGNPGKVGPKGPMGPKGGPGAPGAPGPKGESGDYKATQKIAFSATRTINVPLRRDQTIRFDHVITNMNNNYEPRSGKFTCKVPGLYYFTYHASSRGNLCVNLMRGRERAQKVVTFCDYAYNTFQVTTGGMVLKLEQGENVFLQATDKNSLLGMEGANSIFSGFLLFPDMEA
T1 sequence (P02747 29-245 limits assumed, chain 3 of 3): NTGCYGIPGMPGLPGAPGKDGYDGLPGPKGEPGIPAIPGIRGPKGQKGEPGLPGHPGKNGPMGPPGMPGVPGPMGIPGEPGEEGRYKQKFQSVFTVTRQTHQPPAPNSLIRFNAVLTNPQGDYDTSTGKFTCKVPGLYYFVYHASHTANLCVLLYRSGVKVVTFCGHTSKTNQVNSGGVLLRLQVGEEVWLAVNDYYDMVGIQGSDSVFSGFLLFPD
parameter: RIA for C1q (fold over wild-type)

INSERT INTO measurements (binder, parameter, experimentalvalue) VALUES
  ('Fc polypeptide variant 2A11 (Fcγ1, in vitro translated) (other, Fc region only, in vitro translated with 35S-methionine for RIA) AHTCPPCPAPELLGGPSVFLFPPKPKDTLMISRTPEVTYVVVDVSHEDPEVKFNWYVDGVEVHNAKTEPREEQYNSTYRVVSVFTVLHRDWLNGKEYKCKVSNKALPAPIGKTISKAKGQPREPQVYTLPPSREEMTKNQVSLTCLVKGFYPSDIAVEWESNGQPENNYKTTPPVLDSDGSFFLYSKLTVDKSRWQQGNVFSCSVMHEALHNHYTLKSLSLSPGK', 'RIA for C1q', 2.4),
  ('Fc polypeptide variant 2H06 (Fcγ1, in vitro translated) (other, Fc region only, in vitro translated with 35S-methionine for RIA) AHTCPPCPAPELLGGPSVFLFPPKPKDTLMISRTPEVTCVVVDVSHGDPEVKFNWHVDGVEVHNAKTKPREEQYNSTYRVVSVLTVLHQDWLNGKEYKCKVSSKALPAPIEKTISKAKGQPREPQVYTLPPSREEMTKNQVSLTCLVRGFYPSDIAVEWESNGQPENNYKTTPPVLDSDGSFFLYSKLTVDKSRWQQGNVFSCSVMHEALHNHYTQKSLSLSPGK', 'RIA for C1q', 1.2),
  ('Fc polypeptide variant 2C06 (Fcγ1, in vitro translated) (other, Fc region only, in vitro translated with 35S-methionine for RIA) AHTCPPCPAPELLGGPSVFLFPPKPKDTLMISRTPEVTCVVVDVSHEDPEVKFNWYVDGVGVHNAKTKPREEQYNSTYRVVSVLTVLHQDWLKGKEYKCKVSNKALPAPIGKTISKAKGQPQEPQVYTLPPSREEMTKNQVSPTCLVKGFYPSDIAVEWESNGQPENNYKTTPPVLDSDGSFFLYSKLTVDKSRWQQGNVFSCSVMHEALHNHYTQKSLTLSPGK', 'RIA for C1q', 1.4),
  ('Fc polypeptide variant 2F01 (Fcγ1, in vitro translated) (other, Fc region only, in vitro translated with 35S-methionine for RIA) AHTCPPCPAPELLGGPPVFLFPPKPKDTLMIPRTPEVTCVVVDVNHEDPEVKFNWYVDGVEVRNAKTKPREEQYNSTYRVVSVLTVLHQDWLSGKEYKCKVSNKALPAPIEKTISKAKGQPREPQVYTLPPSREEMTKNQVSLTCLVKGLYPSDITVEWESNGQPENDCKTTPPVLDSDGSSFLYSKLTVDKSRWQQGNVFSCSVMHKAPHNHYTQKSLSLSPGE', 'RIA for C1q', 1.5);
